Hi there, I'd appreciate the recorded protein stability index for every entry that follows.
B1: SFRS1 (parent)
chain: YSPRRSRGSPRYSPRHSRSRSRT

Variants of: B1
Assay: protein stability index of a GFP-peptide fusion (GPS, HEK-293T) (PSI 1-6); higher = more stable;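 also: lentivirally expressed fusions sorted by FACS into six bins by GFP to DsRed ratio, PSI derived from sequencing read proportions per bin multiplied by bin number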
Conditions: c terminus: native
Answer with a number only.

variant "R11N" , protein stability index observed: 3.98

variant "S17M" , protein stability index observed: 4.06

variant "S6N" , protein stability index observed: 3.97
